Assay: yeast display, Sf9 membrane polyspecificity reagent, FACS + sequencing; frameworks hold sequencing errors
measured-endpoint: polyreactivity (PSR sort gate)

# input-sequence, assay-value
measured = [
    ("QVQLVESGGGLVQAGGSLRLSCAASGSIFSYYDMGWYRQAPGKERELVAGISRGGSTNYADSVKGRFTISRDNAKNTVYLQMNSLKPEDTAVYYCNADQSSRTYPFRRSRRSWLYGYWGQGTQVTVSS", "low polyreactivity"),
    ("QVQLVESGGGLVQAGGSLRLSCAASGRIFGRYAMGWYRQAPGKERELVAAITGRGASTYYADSVKGRFTISRDNAKNTVYLQMNSLKPEDTAVYYCNAFRGAQGTDAYDWGQGTQVTVSS", "low polyreactivity"),
    ("QVQLVESGGGLVQAVGSLRLSCAASGSTFHWYDMGWYRQAPGKERELVPGINSSGDGTYYADSVKGRFTISRDNAKNTVYLQMNSLKPEDTAVYDCAAPWWYYGVPYQTNKYDYWGQGTQVTLSS", "low polyreactivity"),
]

Data credit: the nanobody polyreactivity screen of Harvey et al. (2022)
